Entry source: ChEMBL document CHEMBL1140388

Biological target: Melanocortin receptor (M4 and M5) (Homo sapiens) (UniProt P32245+P33032)
Sequence (P32245 whole entry, looked up): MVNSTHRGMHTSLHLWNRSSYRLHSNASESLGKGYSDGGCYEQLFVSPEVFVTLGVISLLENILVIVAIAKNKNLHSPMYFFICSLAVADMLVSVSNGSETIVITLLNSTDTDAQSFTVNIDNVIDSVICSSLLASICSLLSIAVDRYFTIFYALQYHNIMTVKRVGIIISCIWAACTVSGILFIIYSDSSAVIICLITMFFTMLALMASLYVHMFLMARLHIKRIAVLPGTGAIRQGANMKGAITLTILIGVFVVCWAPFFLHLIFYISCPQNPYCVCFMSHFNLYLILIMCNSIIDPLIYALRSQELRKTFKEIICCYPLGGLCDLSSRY
Sequence (P33032 whole entry, looked up): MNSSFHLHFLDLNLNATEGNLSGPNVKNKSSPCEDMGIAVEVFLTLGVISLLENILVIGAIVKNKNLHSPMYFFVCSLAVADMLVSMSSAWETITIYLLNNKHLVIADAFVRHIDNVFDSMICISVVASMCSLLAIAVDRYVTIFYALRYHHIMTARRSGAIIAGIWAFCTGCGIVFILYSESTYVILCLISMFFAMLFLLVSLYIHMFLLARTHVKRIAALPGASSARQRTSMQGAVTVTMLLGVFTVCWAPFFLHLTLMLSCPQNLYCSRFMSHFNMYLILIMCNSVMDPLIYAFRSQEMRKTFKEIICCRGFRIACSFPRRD
Assay: Binding selectivity across hMC 4 and hMC 5 by determining the competitive inhibition of [125 I]NDP MSH binding
Assay type: protein assay
readout: Binding selectivity

1. CC(=O)N1CCCc2cccc(N3CCN(C(=O)[C@@H](Cc4ccc(Cl)cc4)NC(=O)[C@H]4Cc5ccccc5CN4)CC3)c21
2. O=C(N[C@H](Cc1ccc(Cl)cc1)C(=O)N1CCN(c2cccc3c2CN(S(=O)(=O)c2ccccc2)CC3)CC1)[C@H]1Cc2ccccc2CN1
Task for the reader: decide whether 1 or 2 has the larger Binding selectivity. Kindly state the label of the option you pick.
1

I. O=C(N[C@H](Cc1ccc(Cl)cc1)C(=O)N1CCN(c2cccc3c2CCCC3)CC1)[C@H]1Cc2ccccc2CN1
II. CN(C)C1CCc2cccc(N3CCN(C(=O)[C@@H](Cc4ccc(Cl)cc4)NC(=O)[C@H]4Cc5ccccc5CN4)CC3)c2C1 (some centres undefined)
Parameter metric = Binding selectivity. Return the lower-valued option from I and II . Kindly state the label of the option you pick.
I
(I: 3.8, II: 5.6)

---

# pKi per entry for Melanocortin receptor 4 (Homo sapiens, UniProt P32245)
pKi: −log10 of the molar value.
readout: pKi

# compound, pKi
rows = [
    ("CC(=O)NC1CCc2cccc(N3CCN(C(=O)[C@@H](Cc4ccc(Cl)cc4)NC(=O)[C@H]4Cc5ccccc5CN4)CC3)c2C1 (stereo partly specified)", 6.39),
]

A. O=C(N[C@H](Cc1ccc(Cl)cc1)C(=O)N1CCN(c2cccc3c2CN(S(=O)(=O)c2ccccc2)CC3)CC1)[C@H]1Cc2ccccc2CN1
B. O=C(N[C@H](Cc1ccc(Cl)cc1)C(=O)N1CCN(c2cccc3c2CCCC3)CC1)[C@H]1Cc2ccccc2CN1
C. CS(=O)(=O)N1CCc2cccc(N3CCN(C(=O)C(Cc4ccc(Cl)cc4)NC(=O)[C@H]4Cc5ccccc5CN4)CC3)c21 (stereo partly specified)
D. CC(=O)N1CCc2cccc(N3CCN(C(=O)[C@@H](Cc4ccc(Cl)cc4)NC(=O)[C@H]4Cc5ccccc5CN4)CC3)c2C1
E. CN(C)[C@@H]1CCc2cccc(N3CCN(C(=O)[C@@H](Cc4ccc(Cl)cc4)NC(=O)[C@H]4Cc5ccccc5CN4)CC3)c2C1
Order each entry by recorded pKi, climbing from the minimum. Give me the labels in the order the question wants.
B, A, C, D, E
(B: 5.38, A: 5.60, C: 6.05, D: 6.30, E: 7.10)

---

Target: Melanocortin receptor (M1 and M4) (Homo sapiens) (UniProt P32245+Q01726)
Assay: Binding selectivity across hMC 4 and hMC 1 by determining the competitive inhibition of [125 I]NDP MSH binding
Format: protein assay
readout: Binding selectivity

# compound, Binding selectivity
measured = [
    ("CC(=O)N1CCCc2cccc(N3CCN(C(=O)[C@@H](Cc4ccc(Cl)cc4)NC(=O)[C@H]4Cc5ccccc5CN4)CC3)c21", 23),
]

a. CN(C)C1CCc2cccc(N3CCN(C(=O)[C@@H](Cc4ccc(Cl)cc4)NC(=O)[C@H]4Cc5ccccc5CN4)CC3)c2C1 (some centres undefined)
b. O=C(N[C@H](Cc1ccc(Cl)cc1)C(=O)N1CCN(c2cccc3c2CCCC3)CC1)[C@H]1Cc2ccccc2CN1
c. O=C(N[C@H](Cc1ccc(Cl)cc1)C(=O)N1CCN(c2cccc3c2CN(S(=O)(=O)c2ccccc2)CC3)CC1)[C@H]1Cc2ccccc2CN1
Falling order of Binding selectivity, please. Give me the labels in the order the question wants.
a, b, c
(a: 72, b: 47, c: 23)
